# Tested on: HCT116 MTAP-/-
# procedure-text: Inhibition of cellular proliferation (Cell Titer Glo), HCT116 MTAP-/-
# Type: cell-based, human
# measurement-setup: Homo sapiens, HCT-116, 96 h, Table 5a, 4 days, read-out: 4 Day Relative Growth Inhibition (MTAP −/−)
# Protocol: Test compound impact on cancer cell growth was assessed by treating cancer cells with compound for 4 days and then measuring proliferation using an ATP-based cell proliferation readout (Cell Titer Glo, Promega Corporation). In a typical assay an isogenic pair of HCT116 human colon carcinoma cell lines which vary only in MTAP deletion status (HCT116 MTAP+/+ and HCT116 MTAP−/−) were plated in 96-well dishes at appropriate cell density. […]
observation-type: IC50

CCOc1cnc2c(n1)N(c1ccc(OC(F)F)cc1)C(=O)N(c1ccc(OC)cc1)C2 [Example 186] :: < 100 nM
COc1ccc(N2C(=O)N(c3ccc4nn(C)cc4c3)Cc3ccc(SCC(F)(F)F)nc32)cc1 [Example 161] :: 100 to 1000 nM
[2H]C([2H])([2H])Oc1ccc(N2C(=O)N(c3ccc4nn(C)cc4c3)Cc3ccc(OCC)nc32)cc1 [Example 137] :: < 100 nM
Cn1cc2cc(N3Cc4cnc(NCC(F)(F)F)cc4N(c4ccc(OC(F)F)cc4)C3=O)ccc2n1 [Example 268] :: > 1000 nM
CCOc1ccc2c(n1)N(c1ccc(OC)cc1)C(=O)N(c1ccc3nn(C)cc3c1)C2 [Example 143] :: 100 to 1000 nM

Data request, read-out IC50, for [2H]C([2H])([2H])Oc1ccc(N2C(=O)N(c3ccc4nn(C)cc4c3)Cc3c(N)nc(NCC(F)(F)F)nc32)cc1 [Example 430]
< 100 nM

Which IC50 value is on record for COc1ccc(N2Cc3cnc(NCC(F)(F)F)nc3N(c3ccc(CO)cc3)C2=O)cc1 [Example 202] ?
100 to 1000 nM

Param item = CCOc1ccc2c(n1)N(c1ccc(Cl)cc1)C(=O)N(c1ccc3nn(C)cc3c1)C2 [Example 146] ; retrieve measured IC50.
100 to 1000 nM

Which IC50 value belongs to [2H]C([2H])([2H])Oc1ccc(N2C(=O)N(c3ccc4nn(CCF)cc4c3)Cc3ccc(OCC(F)F)nc32)cc1 [Example 129] ?
100 to 1000 nM

###

# assayed-target: MAT2A homodimer (Homo sapiens)
# Construct: inferred from the Ni sepharose purification and imidazole elution; made in house; host or cells: SF9 insect cells, recombinant baculovirus (Bac to Bac, pFASTBAC1)
# procedure-text: MAT2A biochemical assay (liberated phosphate, PiColorLock Gold)
# measurement-setup: Table 5a; MAT2A biochemical assay; read-out: Enzyme Inhibition
observation-type: IC50

Solved entries (count: 3):
COc1ccc(N2Cc3cnc(NCC(F)(F)F)nc3N(c3ccc(C4CC4O)cc3)C2=O)cc1 (centres unmarked) :: 0.1 to 1 µM
[2H]C([2H])([2H])Oc1ccc(N2C(=O)N(c3ccc4nn(C)cc4c3)Cc3ccc(OCC)nc32)cc1 :: < 0.1 µM
O=C1N(c2ccnnc2)Cc2cnc(NCC(F)(F)F)nc2N1c1ccc(OC(F)F)cc1 :: 1 to 10 µM

Suppose we examine the compound COc1ccc(N2C(=O)N(c3ccc4nn(C)cc4c3)Cc3ncc(OCC(F)F)nc32)cc1 ; what IC50 value has been reported?
< 0.1 µM

Can you look up the measured IC50 of CCOc1ccc2c(n1)N(c1ccc(OC)cc1)C(=O)N(c1cncs1)C2 for me?
0.1 to 1 µM

// lookup IC50 for CCOc1ccc2c(n1)N(c1ccc(C(F)F)nc1)C(=O)N(c1ccc3nn(C)cc3c1)C2
< 0.1 µM

Tell me the measured IC50 of Cn1cc(N2Cc3cnc(NCC(F)(F)F)nc3N(c3ccc(-c4nc[nH]n4)cc3)C2=O)ccc1=O , please.
0.1 to 1 µM

What value of measured IC50 is listed for [2H]C([2H])([2H])Oc1ccc(N2C(=O)N(c3ccc4nn(C)cc4c3)Cc3ncc(OCC)nc32)cc1 ?
< 0.1 µM

###

# assayed-target: MAT2A homodimer (Homo sapiens)
# Construct: inferred from the Ni sepharose purification and imidazole elution; made in house; host or cells: SF9 insect cells, recombinant baculovirus (Bac to Bac, pFASTBAC1)
# procedure-text: MAT2A biochemical assay (liberated phosphate, PiColorLock Gold)
# measurement-setup: Table 5a; MAT2A biochemical assay; read-out: Enzyme Inhibition
observation-type: IC50

# example entries with known answers
CCOc1ccc2c(n1)N(c1ccc(OC(F)F)cc1)C(=O)N(c1ccc3ncn(C)c3c1)C2 :: < 100 nM
CCOc1ccc2c(n1)N(c1ccc(-c3nnc[nH]3)cc1)C(=O)N(c1ccc(OC)cc1)C2 :: < 100 nM
[2H]C([2H])([2H])Oc1ccc(N2C(=O)N(c3ccc4nn(C)cc4c3)Cc3ccc(OCCF)nc32)cc1 :: < 100 nM

Return reported IC50; argument: COc1ccc(-n2c(=O)c3cnc(NCC(F)(F)F)nc3n(-c3ccc(O)cc3)c2=O)cc1
100 to 1000 nM

Entry Cn1cc2cc(N3Cc4ccc(OCC(F)F)nc4N(c4ccc5ocnc5c4)C3=O)ccc2n1 has what IC50?
< 100 nM

Which IC50 is reported for this molecule? COc1ccc(N2Cc3cnc(NCC(F)(F)F)nc3N(c3ccc(N(C)C)cc3)C2=O)cc1
< 100 nM

###

# assayed-target: MAT2A homodimer (Homo sapiens)
# Construct: inferred from the Ni sepharose purification and imidazole elution; made in house; host or cells: SF9 insect cells, recombinant baculovirus (Bac to Bac, pFASTBAC1)
# procedure-text: MAT2A biochemical assay (liberated phosphate, PiColorLock Gold)
# measurement-setup: Table 5a; MAT2A biochemical assay; read-out: Enzyme Inhibition
pIC50: −log10 of the molar value.
observation-type: pIC50

Reference set (4 entries):
Cn1cnc2ccc(N3Cc4ccc(OCC(F)(F)F)nc4N(c4ccc(OC(F)F)cc4)C3=O)cc21 [Example 273] :: > 7.00
Cn1cnc2ccc(N3Cc4cnc(NCC(F)(F)F)nc4N(c4ccc(-c5nc[nH]n5)cc4)C3=O)cc21 [Example 218] :: > 7.00
COc1ccc(N2Cc3cnc(NCC(F)(F)F)nc3N(c3ccc(OC(F)F)nc3)C2=O)cc1 [Example 259] :: 6.00 to 7.00
O=C1N(c2ccc3ncccc3c2)Cc2cnc(NCC(F)(F)F)nc2N1c1ccc(-c2nc[nH]n2)cc1 [Example 223] :: > 7.00

Would you kindly look at the next entry?
Tell me reported pIC50 for Cn1cc2cc(N3Cc4ccc(NCC(F)(F)F)nc4N(c4ccc(OC(F)F)cc4)C3=O)ccc2n1 [Example 264] , tested with MAT2A homodimer (Homo sapiens).
> 7.00

###

# assayed-target: MAT2A homodimer (Homo sapiens)
# Construct: inferred from the Ni sepharose purification and imidazole elution; made in house; host or cells: SF9 insect cells, recombinant baculovirus (Bac to Bac, pFASTBAC1)
# procedure-text: MAT2A biochemical assay (liberated phosphate, PiColorLock Gold)
# measurement-setup: Table 5b; Additional Examples; read-out: Enzyme Inhibition
Entries and their IC50

COc1ccc(N2Cc3cnc(NCC(F)(F)F)nc3N(C3CCNC(=O)C3)C2=O)cc1 (stereo not drawn) :: > 10 µM
COc1ccc(N2C(=O)N(c3ccc4nn(C)cc4c3)Cc3cnc(NC4CCCC4)nc32)cc1 :: 0.1 to 1 µM
COc1ccc(N2Cc3cnc(NCC(F)(F)F)nc3N(c3ccc(C(=O)N(C)C)cc3)C2=O)cc1 :: 0.1 to 1 µM

For COc1ccc(N2Cc3cnc(NCC(F)(F)F)nc3N(c3ccc(-c4ccccc4)cc3)C2=O)cc1 , what is its reported IC50?
> 10 µM

Quick one: IC50 of COc1ccc(N2Cc3cnc(NCC(F)(F)F)nc3N(c3cccc(Br)c3)C2=O)cc1 ?
> 10 µM

So what's the measured IC50 for this one? COc1ccc(N2Cc3cnc(-n4ccnc4)nc3N(c3ccc(O)cc3)C2=O)cc1
> 10 µM

Recorded IC50 for COc1ccc(N2Cc3cnc(NCC(F)(F)F)nc3N(c3ccnnc3)C2=O)cc1 , please?
> 10 µM

Please report the recorded IC50 for COc1ccc(-n2c(=O)c3cnc(NCC(F)(F)F)nc3n(-c3ccc(OCc4ccccc4)cc3)c2=O)cc1 .
> 10 µM

For the molecule COc1ccc(N2C(=O)N(c3ccc4nn(C)cc4c3)Cc3ccc(N4CCC4)nc32)cc1 , what IC50 is on record?
> 10 µM

###

# assayed-target: MAT2A homodimer (Homo sapiens, UniProt P31153)
# Construct: inferred from the Ni sepharose purification and imidazole elution; made in house; host or cells: SF9 insect cells, recombinant baculovirus (Bac to Bac, pFASTBAC1)
# Sequence (P31153 whole entry): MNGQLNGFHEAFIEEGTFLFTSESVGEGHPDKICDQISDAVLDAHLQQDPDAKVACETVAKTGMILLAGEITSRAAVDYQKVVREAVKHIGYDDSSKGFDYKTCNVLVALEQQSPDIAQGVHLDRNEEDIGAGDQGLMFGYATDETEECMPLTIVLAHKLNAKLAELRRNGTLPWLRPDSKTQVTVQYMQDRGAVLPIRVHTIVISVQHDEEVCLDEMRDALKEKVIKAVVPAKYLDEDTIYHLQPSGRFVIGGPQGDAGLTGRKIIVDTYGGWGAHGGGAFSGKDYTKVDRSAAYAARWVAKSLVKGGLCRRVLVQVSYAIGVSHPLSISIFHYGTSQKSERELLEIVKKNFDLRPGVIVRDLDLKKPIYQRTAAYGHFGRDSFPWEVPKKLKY
# procedure-text: MAT2A biochemical assay (liberated phosphate, PiColorLock Gold)
# measurement-setup: Table 5a; MAT2A biochemical assay; read-out: Enzyme Inhibition
pIC50: −log10 of the molar value.
Below, each entry is listed with its recorded pIC50.

As a guide, the following entries are already answered.
Cn1cc2cc(N3Cc4ccc(NCC(F)(F)F)cc4N(c4ccc(OC(F)F)cc4)C3=O)ccc2n1 :: > 7.00
COc1ccc(N2Cc3cnc(NCC(F)(F)F)nc3N(c3ccc(-c4ccc[nH]c4=O)cc3)C2=O)cc1 :: 6.00 to 7.00
Cn1cc2cc(N3Cc4ccc(OC5CC5)nc4N(c4ccc(OC(F)F)cc4)C3=O)ccc2n1 :: > 7.00
O=C1N(c2ccc3nccn3c2)Cc2cnc(NCC(F)(F)F)nc2N1c1ccc(-c2nc[nH]n2)cc1 :: > 7.00
COc1ccc(N2Cc3cnc(NCC(F)(F)F)nc3N(c3ccc(Br)cc3)C2=O)cc1 :: > 7.00

Given COc1ccc(N2Cc3cnc(NCC(F)(F)F)nc3N(c3ccc(S(C)(=O)=O)cc3)C2=O)cc1 , state its recorded pIC50.
6.00 to 7.00
